tgt: Dopamine D-4 receptor (Homo sapiens, UniProt P21917)
Sequence (P21917 1-419): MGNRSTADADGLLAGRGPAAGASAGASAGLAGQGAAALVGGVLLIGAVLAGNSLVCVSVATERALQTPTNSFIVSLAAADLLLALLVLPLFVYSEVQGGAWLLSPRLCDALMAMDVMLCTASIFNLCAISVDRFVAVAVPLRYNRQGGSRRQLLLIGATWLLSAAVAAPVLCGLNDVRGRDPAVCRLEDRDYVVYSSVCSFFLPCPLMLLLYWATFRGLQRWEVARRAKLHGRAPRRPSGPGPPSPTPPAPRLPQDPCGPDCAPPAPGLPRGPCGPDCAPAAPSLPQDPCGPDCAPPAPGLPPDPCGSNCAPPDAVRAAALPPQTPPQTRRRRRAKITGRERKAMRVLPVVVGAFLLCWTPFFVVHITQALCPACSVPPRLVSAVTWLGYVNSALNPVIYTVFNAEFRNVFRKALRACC
reported.endpoint: Ki (nM)
Give your result in nM as a bare value.

Per the records, this molecule ( `N=C(c1ccccc1S)N1CCN(CCc2cc3c(cc2Cl)NC(=O)C3)CC1` ) has Ki equal to 59.2

---

protocol.description: titration with 0.2032 Molar sodium hydroxide (pKa)
Type: physicochemical
setup.conditions: dihydrochloride titrated with 0.2032 M NaOH; first equivalence point pH 4.33; read-out: pKa (first)
Counter-ions that a name gives are not always drawn.
reported.endpoint: pKa
When you answer, write just the number.

Per the records, this compound ( N=C(c1ccccc1S)N1CCN(CCc2cc3c(cc2Cl)NC(=O)C3)CC1 [Example 2, dihydrochloride] ) has pKa equal to 3.1

---

tgt: Dopamine D-3 receptor (Homo sapiens)
Sequence (P35462 whole entry): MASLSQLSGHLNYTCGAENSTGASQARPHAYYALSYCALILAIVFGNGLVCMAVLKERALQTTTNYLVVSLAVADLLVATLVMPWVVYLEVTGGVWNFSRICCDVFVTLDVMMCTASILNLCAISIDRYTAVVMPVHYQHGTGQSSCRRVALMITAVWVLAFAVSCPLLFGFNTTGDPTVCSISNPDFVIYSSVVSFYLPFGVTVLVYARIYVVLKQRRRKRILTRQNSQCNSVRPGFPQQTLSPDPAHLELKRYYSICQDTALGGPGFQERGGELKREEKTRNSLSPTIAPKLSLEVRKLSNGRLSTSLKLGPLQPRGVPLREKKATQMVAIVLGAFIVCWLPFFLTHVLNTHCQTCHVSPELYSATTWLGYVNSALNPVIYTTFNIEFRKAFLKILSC
reported.endpoint: pKi
Bear in mind: pKi is minus log10 of a mol/L concentration; give just that figure.

Observed pKi on Dopamine D-3 receptor (Homo sapiens), entry `N=C(c1ccccc1S)N1CCN(CCc2cc3c(cc2Cl)NC(=O)C3)CC1` , equals 8.24
